Molecular target: Myc proto-oncogene protein (Homo sapiens)
Assay: ATG_Myc_CIS: Attagene CIS-FACTORIAL HepG2 Assay for human Myelocytomatosis (Myc) Proto-Oncogene Transcription Factor (AID 2282990)
Details: HepG2, Attagene cis-reporter transcription factor activity; actives raise or lower the signal
Method: ATG_CIS is a cell-based, multiplexed-readout assay that uses HepG2, a human liver cell line, with measurements taken at 24 hours after chemical dosing in a 24-well plate.ATG_Myc_CIS is one of 52 assay component(s) measured or calculated from the ATG_CIS assay. […] This assay endpoint, ATG_Myc_CIS, was analyzed with bidirectional fitting relative to DMSO as the negative control and baseline of activity. […]
Calls of active or inactive are those of the source. How the source made its calls: active means hit-call score of the fitted dose curve at least 0.9, where 1 is the maximum; inactive means score below 0.9.
Possible outcomes: active, inactive

compound=COC(=O)c1ccccc1S(=O)(=O)NC(=O)Nc1nc(C)nc(OC)n1 system_tested="Myc proto-oncogene protein (Homo sapiens)" classification=inactive
compound=CN1CSC(=S)N(C)C1 system_tested="Myc proto-oncogene protein (Homo sapiens)" classification=inactive
compound=CCS(=O)(=O)c1cccnc1S(=O)(=O)NC(=O)Nc1nc(OC)cc(OC)n1 system_tested="Myc proto-oncogene protein (Homo sapiens)" classification=inactive
compound=CNC(=O)CSP(=S)(OC)OC system_tested="Myc proto-oncogene protein (Homo sapiens)" classification=inactive
compound=CCN(CC)C(=O)SCc1ccc(Cl)cc1 system_tested="Myc proto-oncogene protein (Homo sapiens)" classification=inactive
compound="CC(C)(C)C(O)/C(=C\\c1ccc(Cl)cc1Cl)n1cncn1 (configuration not stated)" system_tested="Myc proto-oncogene protein (Homo sapiens)" classification=inactive
compound=[2H]C1([2H])[n+]2ccccc2-c2cccc[n+]2C1([2H])[2H] system_tested="Myc proto-oncogene protein (Homo sapiens)" classification=active
compound=N#Cc1c(Cl)c(Cl)c(Cl)c(C#N)c1Cl system_tested="Myc proto-oncogene protein (Homo sapiens)" classification=inactive
compound=COc1nn(CSP(=S)(OC)OC)c(=O)s1 system_tested="Myc proto-oncogene protein (Homo sapiens)" classification=inactive
compound="CC1(C)C(C=C(Cl)Cl)C1C(=O)OC(C#N)c1ccc(F)c(Oc2ccccc2)c1 (configuration not stated)" system_tested="Myc proto-oncogene protein (Homo sapiens)" classification=inactive
compound=O=C(O)COc1ccc(Cl)cc1Cl system_tested="Myc proto-oncogene protein (Homo sapiens)" classification=inactive
compound=CC(C)N(C(=O)COc1nnc(C(F)(F)F)s1)c1ccc(F)cc1 system_tested="Myc proto-oncogene protein (Homo sapiens)" classification=inactive
